- EXPERIMENT SUMMARY: gradient 5% acetonitrile 3 min, to 50% in 2 min, to 85% in 15 min, held 3 min, 100 µL/min
- COND: column: Zorbax Extend-C18 2.1 x 50 mm; eluents: water / acetonitrile, 0.1% formic acid
OBSERVED PROPERTY: RP-LC retention time (s)
Lab book: enter the figure in s, no units written.

MOLECULE | RP-LC retention time (s)
COc1ccc(S(=O)(=O)N2CCCC(c3nnnn3C)C2)cc1 (stereo not given) | 744
CC(C)n1c(=O)c(Nc2cccc(Cl)c2)nc2ccncc21 | 649
Cc1ccc2c(Nc3ccc(F)cc3)c(C(=O)N3CCCC3)cnc2n1 | 594

INPUT: Entry Cc1ccccc1NC(=O)N1CCCC(Cn2c(C3CC3)nc3cccnc32)C1 (stereo not given) : reported RP-LC retention time = ?
OUTPUT: 656

INPUT: Same question for "COc1ccc(C(=O)N2C[C@@H]3C[C@H]2C[C@@H]3NC(=O)c2cccs2)cc1F" please.
OUTPUT: 712

INPUT: Same question for "CC(=O)Oc1ccc(Nc2cc(C)nc3nc(-c4cccnc4)nn23)cc1" please.
OUTPUT: 688
